Data origin: paper PMC11036874

Target chain: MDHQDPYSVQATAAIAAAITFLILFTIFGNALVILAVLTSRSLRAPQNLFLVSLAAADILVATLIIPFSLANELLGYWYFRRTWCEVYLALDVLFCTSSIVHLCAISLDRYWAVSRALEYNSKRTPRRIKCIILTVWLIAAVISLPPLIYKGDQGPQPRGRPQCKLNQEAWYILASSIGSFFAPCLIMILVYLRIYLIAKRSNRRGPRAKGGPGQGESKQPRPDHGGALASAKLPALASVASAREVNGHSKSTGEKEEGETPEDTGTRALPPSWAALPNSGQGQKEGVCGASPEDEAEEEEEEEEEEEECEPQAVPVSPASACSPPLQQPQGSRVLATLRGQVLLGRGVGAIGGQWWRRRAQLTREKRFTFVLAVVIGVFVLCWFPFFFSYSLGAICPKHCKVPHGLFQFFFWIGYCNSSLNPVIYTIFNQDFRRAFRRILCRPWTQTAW
metricName: Ki (nM)
Answers are plain numbers, in nM.

// lookup Ki for CCN(CCCNC(=O)c1ccc(-c2ccncc2)cc1)CCNC(=O)c1cc(I)cc(OC)c1OC
1070
